Listing of entries alongside the reported Activity.
assay-system: Metabotropic glutamate receptor 7 (Rattus norvegicus) (UniProt P35400)
Sequence (P35400 whole entry): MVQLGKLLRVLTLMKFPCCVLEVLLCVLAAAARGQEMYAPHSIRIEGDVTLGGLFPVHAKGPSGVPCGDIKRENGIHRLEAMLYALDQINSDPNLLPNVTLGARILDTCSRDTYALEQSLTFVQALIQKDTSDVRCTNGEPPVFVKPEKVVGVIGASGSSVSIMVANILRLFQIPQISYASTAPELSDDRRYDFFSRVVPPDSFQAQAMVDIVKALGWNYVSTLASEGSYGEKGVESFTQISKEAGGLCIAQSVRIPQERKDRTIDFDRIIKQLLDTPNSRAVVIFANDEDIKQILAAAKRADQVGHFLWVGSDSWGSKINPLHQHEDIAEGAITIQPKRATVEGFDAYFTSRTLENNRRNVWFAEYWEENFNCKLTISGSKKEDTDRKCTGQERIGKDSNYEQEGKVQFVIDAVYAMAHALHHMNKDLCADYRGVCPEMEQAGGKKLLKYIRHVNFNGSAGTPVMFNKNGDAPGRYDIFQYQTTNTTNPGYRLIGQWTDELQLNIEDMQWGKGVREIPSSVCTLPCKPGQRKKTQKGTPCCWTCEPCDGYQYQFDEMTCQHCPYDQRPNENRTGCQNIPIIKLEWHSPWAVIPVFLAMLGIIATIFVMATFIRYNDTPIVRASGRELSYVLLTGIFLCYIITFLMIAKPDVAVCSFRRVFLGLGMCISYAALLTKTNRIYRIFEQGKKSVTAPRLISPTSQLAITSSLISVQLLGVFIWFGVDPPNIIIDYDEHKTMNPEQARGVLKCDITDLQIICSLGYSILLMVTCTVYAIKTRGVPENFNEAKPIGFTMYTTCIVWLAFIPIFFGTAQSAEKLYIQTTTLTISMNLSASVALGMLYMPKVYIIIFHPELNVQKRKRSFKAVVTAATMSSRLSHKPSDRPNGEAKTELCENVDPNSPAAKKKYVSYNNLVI
protocol: Positive allosteric modulation of rat mGlu7 receptor expressed in HEK293 cells co-expressing Gai5 assessed as potentiation of L-AP4-induced calcium mobilization preincubated for 140 secs and treated with EC20 L-AP4 for 125 secs and followed by subsequent addition of EC80 L-AP4 by Fluo-4-AM dye based fluorescence assay relative to maximal induction of L-AP4
Format: functional, cell-based
conditions: filed as positive allosteric modulator, time 140.0 sec
Field format: number, assumed %, no unit text.

# molecule, unit-text, Activity
data = [
    ("N#Cc1cnc2c(N3CCOCC3)cccc2c1N1CCN(c2ccccc2F)CC1", "%", 72),
    ("N#Cc1cnc2c(OCC3CCOC3)cccc2c1N1CCN(c2ccccc2F)CC1 (single isomer, unassigned; (+))", "%", 77),
    ("COc1ccc(F)c2c(N3CCN(c4ccccc4F)CC3)c(C#N)cnc12", "%", 35),
    ("N#Cc1cnc2c(N3CCCCC3)cccc2c1N1CCN(c2ccccc2F)CC1", "%", 24),
]

Kindly review the next molecule as well.
Asked: Please look at this molecule and report its Activity: N#Cc1cnc2c(OC3CCOC3)cccc2c1N1CCN(c2ccccc2F)CC1 (single isomer, unassigned; (-))
Given back: 70
